inhibition in vivo at 100 mg/kg listing for selected molecules.
System: Rattus norvegicus
Assay: Tested in vivo for inhibition of sorbital accumulation in the sciatic nerve of streptozotocin- induced diabetic rat; % Inhibition at 100 mg/kg
Assay type: functional
I only need the number, in %, no unit after it.

CC(C)N1C(=O)c2cccn2C(CC(=O)O)C1=O (stereo unspecified) ... 12.9
COC(=O)CN(C)C(=O)c1ccc[nH]1 ... 38
CN(CC(=O)O)C(=O)c1ccc[nH]1 ... 23.7

Identify the reported inhibition in vivo at 100 mg/kg for the following entry. CN1C(=O)c2cccn2C(CC(=O)O)C1=O (stereo unspecified) 12.8

Identify the reported inhibition in vivo at 100 mg/kg for the following entry. O=C(O)CC1C(=O)NC(=O)c2cccn21 (stereo unspecified) 12.5

Identify the reported inhibition in vivo at 100 mg/kg for the following entry. CN1CC(=O)n2cccc2C1=O 55.7
